Tested on: MS2 coat protein
ASSAY: apparent KD of MS2 coat protein; higher = weaker reporter binding
MEASUREMENT_CONTEXT: Eterna round: R107; input ligand: theophylline 20 uM
// bucketize apparent KD of MS2 coat protein: label 0: < 20 nM; label 1: ≥ 20 nM and < 200 nM; label 2: ≥ 200 nM

BIOPOLYMER_SEQUENCE	ASSIGNED_LABEL
CUACAUUUGUAGAAACCGGUCAACAAUAAUCGAGGACCGGUACGGCCGCCACUCGUAUAAUUUAAUACAUGAGGAUCACCCAUGU [Tryptophan A 1]	label 0
GGUAGCAGGACUGAUACCAGUCCAGCGAAUCAUACGACGCAACAUGAGGAUCACCCAUGUGACCCUUGGCAGCAGUCUGCUACCG [Same State Theophylline B GF 29]	label 1
CAAUAUAUAUGAAGGAGCGUCGAAAAUGGGUAAACAUGAGGAUCACCCAUGUAAAGGGAACGACAGGUAGGUCGCAUAUAUAUUG [AstromonsSSArgB#8]	label 2
CGCUACAUGAGGAUCACCCAUGUUACUCCGCGAGGACCGGUACGGCCGCCACUCGGCAGUUUGCGCCGCCGGAGGCACUCUUCAG [theeternabot_sameState_MS2_Trp_A_32]	label 1
UAAUAAGUACCGGUCCUCAGAUCCUCAUGACGAGGACCGGUACGGCCGCCACUCGAAACAUGAGGAUCACCCAUGUAAUAAUAAU [|T'-M'-Trp-Ms2|_Design 1]	label 1
GAGGAAACUCACAUGAGGAUCACCCAUGUACGAGGACCGGUACGGCCGCCACUCGAAACCAUGGGCGGUAGUACAUGGAAACAUG [Design 2 MOD]	label 1
ACACAUGAUAGAAGGAGCGCAAUGAACACACAUGAGGAUCACCCAUGUUUUUUUUGUGUUUUGCAGGUAGGUCGCUAACAUGAGG [Same State Arginine B 4]	label 1
AACAGGGCUUCCACGAAGCCCUAAGGUGAUACCAGCACAUGUAAGUGCCCUUGGCAGCACGGUACAUGAGGAUCACCCAUGUAGA [Gerara]	label 2
AUCAGUAGAACUGAUACCAGUCAAAGGCUUUGACCUCAUAACAUGAGGAUCACCCAUGUUGACCCUUGGCAGCAGUAGGCAAGGG [Theo B Ex t4]	label 1
AGCCAUGGAAACAUGGCGGCGGCUUGGGCGCGAGGACCGGUACGGCCGCCACUCGGGCAACAUGAGGAUCACCCAUGUUCCUCAU [ETA NP+V+V2 #18]	label 2
CUAUAAAUAUGAAGGAGCGUCGAAAAUGGGUAAACAUGAGGAUCACCCAUGUAAAGGGAACGACAGGUAGGUCGCAUAUUUAUAG [AstromonsSSArgB#11]	label 1
GAGCUGAUGUAGAAAUUUUAUUUCUGAGAUACCAGUACAGAAAUGUACCCUUGGCAGCUCAGUUUUACAUGAGGAUCACCCAUGU [Ex Theophylline A 15]	label 0
CCUCAUGUGUAUCACCACAUGAGUGGUGAUACCAGCAUCGAAAGAUGCCCUUGGCAGCACCAACAUGAGGAUCACCCAUGUAAUA [(M)'-(T)'-(M)''-(T1)-(T2)-(M1)-(M2)_Design2]	label 2
AGAUGCCACUGUGGAUAGCACGAUGCCGAUACCAGCUAGGAAACUAGCCCUUGGCAGCGGUACAUGAGGAUCACCCAUGUAUCCU [EThA NP+V+V2 #9]	label 0
GGGUAUGAUCCGGAUACCAGCGAACAUGAGGAUCACCCAUGUGACCUAAGAUAGGCUAAACGCCCUUGGCAGCCGAGAUUGCGUU [Same State Theophylline B GF7]	label 1
UGUGUUGUCCGAAGGAGCGGGACCUAAUAGUGGUAACAUGAGGAUCACCCAUGUAUUUCGUCCCAGGUAGGUCGCGGACAGUGUA [ArgiB-ms2@36]	label 1
UCGUGUAUAUCGGAUACCAGUGAAAUCGAUACAUGAGGAUCACCCAUGUGAGUUGAUGUACACCCUUGGCAGCUGUAUAUAUCUA [snbullin]	label 0
ACUAGUUGUGCAGAUACCAGACACGAGGAUCACCCGUGUUUGGGAUGUUCGCAUCUUCCUGUCCCUUGGCAGCUGUACAUCUAGA [Omei Theo B Exc v8]	label 1
GAUCGACAAAACGUCUAGGAAAACUAGACGCGAGGACCGGUACGGCCGCCACUCGUCCUCACAUGAGGAUCACCCAUGUACGAUC [#SwitchBubble 2 #CuTurnoff]	label 1
AGCACUGUGACGGCCGCCACUACAUAAUAGGGUGGUCAGGUUCAUAUACAUGAGGAUCACCCAUGUAGGACCGGGUCUCAGUGCA [Omei Trp Exc B A v6]	label 0
UAAUACCAGGUCAACGUACCAGGUGAUCAACGAGGACCGGUACGGCCGCCACUCGAAACAUGAGGAUCACCCAUGUAAGACCUGG [|T'-M'-Trp-Ms2|_Design 2_ML2]	label 1

###

Test system: K4 kissing-loop RNA reporter
ASSAY: apparent KD of K4 kissing-loop reporter; higher = weaker reporter binding
MEASUREMENT_CONTEXT: Eterna round: R107; input ligand: tryptophan 2.4 mM
Examples of sequences with documented apparent KD of K4 kissing-loop reporter follow.
EXPERIMENTAL_ENDPOINT: apparent KD of K4 kissing-loop reporter (nM)

| BIOPOLYMER_SEQUENCE | MEASUREMENT |
| --- | --- |
| GUAUAAGUGGGCGAUACCAGCUGUCGGUAGUGAUGUUAUUCAGCAGUCAGGAAGUUCGCUAGCCCUUGGCAGCGCCAGUGGUGAC [theeternabot_exclusion_KL_Theo_B_19] | 341 |
| GCAUCCAUGGCAGGAUAUAGGUUCGUGGAGUGAUGUUCCAUAACCCGAGUGAUGUUCGUUAUCCACCUAGAAGGGCCAUGGAUGC [whbob_Ex_FMNB__2th211] | 184 |
| UGAUAGGACAGAAGGAGCGGCAGUGAUGUUGCCAAAAGGUUAAGGUGUCAAAAGACACCCUGCCAGGUAGGUCGCUGUCCUAUCU | 208 |
| CUUAAGGAGUGUCGUGCCGGACACUGGGAAGGAGCGCAAUUCUUUGCAGGUAGGUCGCCCAGUGAUGUUGGGUGGCGCUGUCGAA [Laatonbi] | 128 |
| UGAUUGCCAGUGAUGUUGGCAGUGACUGAAGGAGCGCGUGAAAACGCAGGUAGGUCGCAGUUGAGUGCCAAUUGAUCGAAAGAUC [KL-XArg-A5] | 249 |
| UUCUGCAUCUCGGCCGCCACUCACUAGUGAUGUUAGUAAGGAGCGACUAGACAUGUCCCGUUGUUGAGGACCGGGAGAGGCUCUU [#14 K4 Tryptophan B Exclusion] | 170 |

###

Tested on: K4 kissing-loop RNA reporter;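 also: bound reporter read as fluorescence of individual clusters on recovered sequencing chips by microscopy, with normalized cluster intensities fitted with a binding model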
ASSAY: apparent KD of K4 kissing-loop reporter; higher = weaker reporter binding
MEASUREMENT_CONTEXT: Eterna round: R107; input ligand: FMN 200 uM
Examples of sequences with documented apparent KD of K4 kissing-loop reporter follow.

| BIOPOLYMER_SEQUENCE | apparent KD of K4 kissing-loop reporter |
| --- | --- |
| UACUGGGCGAGUGAUGUUCGCUCACGUGAUACCAGUGCCAUCCAACACCCUUGGCAGCACGCGGGCAGUGAUGUUGUCCUUGUAU [Exclusion Theophylline A GF 5] | 0.127 µM |
| CUGACCAACAGCGAUACCAGCGUGGAGUGAUGUUCCCUGGUCCGGGCUGAUGUUCCCUUGCGCCCUUGGCAGCGCAGAAGCAGGA [Exclusion Theophylline B GF 12] | 0.296 µM |
| AGACUACUGAUAGGAUAUAACAUACUAACUCGUAUACCAAAGGUAUACGAGACCCUUCUAGUGAUGUUAGAAGGGUCGGUAGUCA [Omei KL FMN B Exc B v6] | 0.0822 µM |
| UGUUUUUACUGAAGGAGCGGCAAUUGAUACGUAGAUAUAGUGAUGUUAUAUAAGAUAGAGAGCCAGGUAGGUCGCAGAAUGAAUC [ExArgB.aD] | 0.209 µM |
| GGAUCCACCAGUGAUGUUGGAGAAAACUCCAAGGAUAUGACGAAAGUCAGAAGGUGGUAGACUGGACAAAGUCCGGUAGGAUCCA [FmnA10 A78] | 0.992 µM |
| UAAUAUAACCGAAGGAGCGCGUGGGCGCAGUGAUGUUGCGCCCGACAUCACUUCAACUAAACGCAGGUAGGUCGCGGUAAUAAUA [Arginine B (Excl) V1] | 0.134 µM |
| GCUCGGGAGUGAUGUUCCAAGUGGUGUUAACGAGGACCGGUACGGCCGCCACUCGAUACGGCCGGGCCGUAGGAUAAACUGGAGC [Same State - Tryptophan A (Freestyle 13)] | 0.193 µM |
| ACGUCCCGUUUACUCGUGGGUUAGGUCGAUACCAGUAUUCAAACUUACCCUUGGCAGCGACAUGAGUGAUGUUCAUGUGCGAAGA [KL-XTheo-A5 #analogue] | 0.114 µM |
| GUAUCAGUGAUGUUGGUAGGCGAGCGGGAUACCAGCCAAGACUCAGGCCCUUGGCAGCCCACAUAUCCCACGUAGAUAGUAGCUC [Same State - Theophylline A (Freestyle 15)] | 0.155 µM |
| GAUUCAGUGAUGUUGGAAGGCGAGCGGGAUACCAGCCGAGACUCAGGCCCUUGGCAGCCCACAUAUCCCAGGUAGAUAGUCGAUC [Same State - Theophylline A (Freestyle 9)] | 0.185 µM |
| UGUCUUCAGUGAUGUUGAUGACAACACUUAAAGGAUAUGCGAGAGAGCAGAAGGUUAAACAACGCGCAAAUCAAGGAGGGUCUAG [theeternabot_exclusion_KL_FMN_A_30] | 0.193 µM |
| GCCGUAGAUUGAAGGAGCGGGAUAGAGAAAGUGAUGUUUUCUCUUUGACGGCGUCCUCGAUCCCAGGUAGGUCGCAAUCUACGGC | 0.0761 µM |
| GCAUGCAUGGCAGGAUAUAAUCUGGAGUGAUGUUCCUUUAACCUUUCGAACGGCGAGCCAGGUUGAUUAGAAGGGCCAUGCAUGC | 0.435 µM |
| UAGUCCUAGUGAUCGUUAUCAAGUGGUGGGCGAGGACCGGUACGGCCGCCACUCGACUAUGCAGUGAUGUUGCAAUCCGGACAAU [Exclusion - Tryptophan A (Freestyle 14)] | 0.209 µM |
| UUUUAGGUAUCUGAUACCAGAGAAAAUAUAUGUAGUGAUGUUAUAUACAAAAUAAUUAAGCUCCCUUGGCAGCAGUUUUAAUUUU [AstrosExc-TheB#5] | 0.872 µM |
| CCUAUCUCAUACGAUACCAGUCUAUUGUUACGAGUGAUGUUCGAAUAUUUGCCAUUCAAUGACCCUUGGCAGCGUAUGGGAUAGG [Ex Theophylline B K4 10] | 0.502 µM |
| GAUUCUGUUCGAAAGAACGGAAUCACGGAAGGAGCGAGAGAAAUCUCAGGUAGGUCGCCGAAUUUUUGAUAGUGAUGUUAUCAUU [Arginine A K4 2] | 0.422 µM |
| AGGUACAAAAGUACCGCUAGAUCCACGGAAGGAGCGGCCGAAAGGCCAGGUAGGUCGCCGGGCAGUGAUGUUGCCGGAUCUAGCA [Omei KL Arginine A SS A v2] | 0.194 µM |
| UUAGGAGUGGGAGGAUAUCCUAAUGUGGGUGAUGUUAGUGAUGUUGAAAGUGUAGUGAUGUUGUGCGGAGAAGGUCCAGUGUUGA [BDazzled - #11 - Exc. FMN B] | 0.212 µM |
| AUUCAUUUCAGAGGAUAUCGCUGGAGAGUGAUGUUCUCCCAUAGUCAGUGAUGUUGGCUAGCUAUGCGAGAAGGCUGUGGGUGGA [Same State FMN B GF 28] | 0.143 µM |
| AGAAAGAAGGCGGCCGCCACUCUGAUGGGCGAAAGCCCAUUUUUUUAGCAGUGAUGUUGCUUGUUGAGGACCGGGCCAAAGAAAU [2nd] | 0.179 µM |
| GUCCCGAGUGAUGUUCGGGUCGUUCGGGAAGGAGCGCCCGCAAGGGCAGGUAGGUCGCCCGGAUCCCUCAGGUAACUGAGGGACC [#2 Same State - Arginine A Attempt #26 (HarryS)] | 0.632 µM |
| CAUGGAGUGAUGCUCCAUGAUCGGGCUUGGCAGGAUAUGGGAUCUUCCAGAAGGGCCGAUCCCAGCGAGUGAUGUUCGCUGGUCU [Exclusion FMN A GF 27] | 0.119 µM |

// provenance: the supplement of paper PMC9170038
